Numbers sourced from ChEMBL document CHEMBL1147192.

Test system: Rattus norvegicus
protocol-summary: Neurotoxicity in orally dosed Wistar rat after 1 hr by RotoRod test
Assay type: toxicity, organism-based
conditions: in vivo, po
Listing: ED50 of selected compounds

{"mol-smiles": "Fc1cccc(-c2noc(Cn3cncn3)n2)c1", "ED50": "128 mg/kg"}
{"mol-smiles": "c1ccc(-c2nc(Cn3cncn3)no2)cc1", "ED50": "335 mg/kg"}
{"mol-smiles": "Cc1ccc(-c2noc(Cn3cncn3)n2)cc1", "ED50": "171 mg/kg"}

# "Cc1cccc(-c2noc(Cn3cncn3)n2)c1" with Rattus norvegicus: ED50 is 219 mg/kg

Tested on Rattus norvegicus, the item "Clc1ccc(-c2noc(Cn3ccnc3)n2)cc1" showed ED50 equal to > 500 mg/kg

Entry "Clc1ccc(-c2noc(Cn3cncn3)n2)cc1" ; assay system Rattus norvegicus; ED50 recorded at < 100 mg/kg
